Known pIC50 of a selection of molecules
TESTED_SYSTEM: Transient receptor potential cation channel subfamily V member 1 (Homo sapiens, UniProt Q8NER1)
Sequence (Q8NER1 whole entry): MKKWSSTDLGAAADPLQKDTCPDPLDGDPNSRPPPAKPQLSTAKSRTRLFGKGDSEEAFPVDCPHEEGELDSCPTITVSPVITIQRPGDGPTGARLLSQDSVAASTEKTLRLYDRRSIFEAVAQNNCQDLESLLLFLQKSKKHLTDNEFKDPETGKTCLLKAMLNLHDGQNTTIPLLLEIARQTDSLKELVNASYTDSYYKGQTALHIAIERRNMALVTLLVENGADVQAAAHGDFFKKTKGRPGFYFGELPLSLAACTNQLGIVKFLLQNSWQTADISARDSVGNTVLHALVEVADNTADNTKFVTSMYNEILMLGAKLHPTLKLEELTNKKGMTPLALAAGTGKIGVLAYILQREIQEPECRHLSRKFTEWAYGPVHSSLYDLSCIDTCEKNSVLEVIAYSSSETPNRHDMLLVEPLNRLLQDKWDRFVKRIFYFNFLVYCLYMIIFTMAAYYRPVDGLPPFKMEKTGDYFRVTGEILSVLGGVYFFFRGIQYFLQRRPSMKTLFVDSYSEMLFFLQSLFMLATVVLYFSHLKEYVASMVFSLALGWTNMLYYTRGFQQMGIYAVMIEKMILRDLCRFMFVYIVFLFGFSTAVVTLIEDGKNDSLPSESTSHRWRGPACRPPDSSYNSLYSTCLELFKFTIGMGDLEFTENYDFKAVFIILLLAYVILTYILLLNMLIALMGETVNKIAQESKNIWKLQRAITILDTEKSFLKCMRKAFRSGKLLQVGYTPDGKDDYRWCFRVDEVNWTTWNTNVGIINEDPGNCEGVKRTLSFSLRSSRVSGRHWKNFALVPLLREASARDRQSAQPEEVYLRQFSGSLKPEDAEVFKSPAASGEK
ASSAY_NOTES: Activation Assay: The cDNA for human TRPV1 (hTRPV1) was isolated by reverse transcriptase-polymerase chain reaction (RT-PCR) from human small intestine poly A+ RNA supplied by Clontech (Palo Alto, Calif.) using primers designed surrounding the initiation and termination codons identical to the published sequences (Hayes et al. Pain 2000, 88, 205-215). The resulting cDNA PCR products were subcloned into pCIneo mammalian expression vector (Promega) and fully sequenced using fluorescent dye-terminator reagents (Prism, PerkinElmer Applied Biosystems Division) and a PerkinElmer Applied Biosystems Model 373 DNA sequencer or Model 310 genetic analyzer. Expression plasmids encoding the hTRPV1 cDNA were transfected into HEK293 cells using Lipofectamine. Forty-eight hours after transfection, the neomycin-resistant cells were selected with growth medium containing 800 ug/mL Geneticin (Life Technologies, formerly Gibco BRL). Surviving individual colonies were isolated and screened for TRPV1 activity.
pIC50: −log10 of the molar value.
READOUT_NAME: pIC50

STRUCTURE: CN1Cc2ccc(NC(=O)N[C@@H]3CC(C)(C)Oc4c(F)cccc43)cc2NC1=O
OBSERVED_MEASUREMENT: 6.09

STRUCTURE: Cn1c(=O)ccc2c(NC(=O)N[C@@H]3CC(C)(C)Oc4cc(F)ccc43)cccc21
OBSERVED_MEASUREMENT: 8.00

STRUCTURE: O=C1CCc2ccc(NC(=O)N[C@@H]3CC(CF)(CF)Oc4cc(Cl)ccc43)cc2N1
OBSERVED_MEASUREMENT: 7.46

STRUCTURE: CCC1(CC)C[C@@H](NC(=O)Nc2cccc3c2CNC(=O)N3C)c2ccc(F)cc2O1
OBSERVED_MEASUREMENT: 7.62

STRUCTURE: CN1C(=O)NCc2c(NC(=O)N[C@@H]3CC(C)(C)c4ccccc43)cccc21
OBSERVED_MEASUREMENT: 7.54

STRUCTURE: CN1C(=O)NCc2c(NC(=O)N[C@@H]3CC(C)(C)Oc4ccccc43)cccc21
OBSERVED_MEASUREMENT: 7.43

STRUCTURE: CN1C(=O)CCc2ccc(NC(=O)N[C@@H]3CCOc4c3cccc4C(F)(F)F)cc21
OBSERVED_MEASUREMENT: 7.03

STRUCTURE: CN1C(=O)NCc2c(NC(=O)N[C@@H]3CC(CF)(CF)Oc4c3ccc(Cl)c4F)cccc21
OBSERVED_MEASUREMENT: 7.60

STRUCTURE: CN1C(=O)NCc2c(NC(=O)N[C@@H]3CC(C)(C)Oc4cc(Cl)ccc43)cccc21
OBSERVED_MEASUREMENT: 7.38
